We begin with a simple list: items and their reported CTG-3D luminescence at 96 h.
# Test system: HCI-003.E2 (organoid from an ER-positive breast cancer xenograft)
# experiment.notes: CTG-3D luminescence at 96 h relative to day-0 seeding control (ratio to day 0); higher = more growth / less cytotoxicity; PDxO 3D drug screen (set 2), 96 h, CTG-3D normalised to day-0 seeding control.
# measurement.conditions: 625 fM

compound	test.target	CTG-3D luminescence at 96 h
CO[C@H]1C[C@@H]2CC[C@@H](C)[C@@](O)(O2)C(=O)C(=O)N2CCCC[C@H]2C(=O)O[C@H]([C@H](C)C[C@@H]2CC[C@@H](O)[C@H](OC)C2)CC(=O)[C@H](C)/C=C(\C)[C@@H](O)[C@@H](OC)C(=O)[C@H](C)C[C@H](C)/C=C/C=C/C=C/1C [rapamycin]	HCI-003.E2	1.32
CC(C)n1nc(-c2ccc3oc(N)nc3c2)c2c(N)ncnc21 [sapanisertib]	HCI-003.E2	2.87
CCOc1ccn(-c2ccc(F)cc2)c(=O)c1C(=O)Nc1ccc(Oc2ccnc(N)c2Cl)c(F)c1 [ASLAN002]	HCI-003.E2	2.78
C[C@@H](Nc1cc(F)cc(F)c1)c1cc(C(=O)N(C)C)cc2c(=O)cc(N3CCOCC3)oc12 [AZD-8186]	HCI-003.E2	2.58

---

# Test system: HCI-011.E2 (organoid from an ER-positive breast cancer xenograft)
# experiment.notes: CTG-3D luminescence at 96 h relative to day-0 seeding control (ratio to day 0); higher = more growth / less cytotoxicity; PDxO 3D drug screen, 96 h, CTG-3D normalised to day-0 seeding control.
# measurement.conditions: 0.005 µM; days in culture: 74
We begin with a simple list: items and their reported CTG-3D luminescence at 96 h.

compound	CTG-3D luminescence at 96 h
Cc1cc(Nc2ncc(Cl)c(Nc3ccccc3S(=O)(=O)C(C)C)n2)c(OC(C)C)cc1C1CCNCC1	1.77
Nc1ccn([C@@H]2O[C@H](CO)[C@@H](O)C2(F)F)c(=O)n1	2.13
C[C@@H]1COCCN1c1cc(C2([S@](C)(=N)=O)CC2)nc(-c2cc[nH]c3nccc2-3)n1	1.97
COc1cccc2c1C(=O)c1c(O)c3c(c(O)c1C2=O)C[C@@](O)(C(=O)CO)C[C@@H]3O[C@H]1C[C@H](N)[C@H](O)[C@H](C)O1	2.17
CCc1c2c(nc3ccc(O)cc13)-c1cc3c(c(=O)n1C2)COC(=O)[C@]3(O)CC	2.09
Cc1nc(-c2cn3c(n2)-c2ccc(-c4cnn(C(C)(C)C(N)=O)c4)cc2OCC3)n(C(C)C)n1	1.33
CN(Cc1cnc2nc(N)nc(N)c2n1)c1ccc(C(=O)N[C@@H](CCC(=O)O)C(=O)O)cc1 [methotrexate]	1.99

---

# Tested on: HCI-012 (organoid from a breast cancer xenograft)
# experiment.notes: CTG-3D luminescence at 96 h relative to day-0 seeding control (ratio to day 0); higher = more growth / less cytotoxicity; PDxO 3D drug screen, 96 h, CTG-3D normalised to day-0 seeding control.
# measurement.conditions: 1 µM; days in culture: 162
So basically: CTG-3D luminescence at 96 h at 1 or higher? That is t. Lower than 1? That is f.

molecule	assigned.label
CC[C@H](NC(=O)[C@H](C)NC)C(=O)N1C[C@@H](O)C[C@H]1Cc1c(-c2[nH]c3cc(F)ccc3c2C[C@@H]2C[C@H](O)CN2C(=O)[C@H](CC)NC(=O)[C@H](C)NC)[nH]c2cc(F)ccc12 [birinapant]	f
COc1cccc2c1C(=O)c1c(O)c3c(c(O)c1C2=O)C[C@@](O)(C(=O)CO)C[C@@H]3O[C@H]1C[C@H](N)[C@H](O)[C@H](C)O1 [doxorubicin]	f
CS(=O)(=O)c1ccc(C(=O)Nc2ccc(Cl)c(-c3ccccn3)c2)c(Cl)c1 [vismodegib]	t
C[C@@H]1COCCN1c1cc(C2([S@](C)(=N)=O)CC2)nc(-c2cc[nH]c3nccc2-3)n1 [ceralasertib]	t
C=CCn1c(=O)c2cnc(Nc3ccc(N4CCN(C)CC4)cc3)nc2n1-c1cccc(C(C)(C)O)n1 [adavosertib]	t
Cc1nc(-c2cn3c(n2)-c2ccc(-c4cnn(C(C)(C)C(N)=O)c4)cc2OCC3)n(C(C)C)n1 [taselisib]	t
Nc1ccn([C@@H]2O[C@H](CO)[C@@H](O)C2(F)F)c(=O)n1 [gemcitabine]	f
CC(=O)O[C@H]1C(=O)[C@@]2(C)[C@H]([C@H](OC(=O)c3ccccc3)[C@]3(O)C[C@H](OC(=O)[C@H](O)[C@@H](NC(=O)c4ccccc4)c4ccccc4)C(C)=C1C3(C)C)[C@]1(OC(C)=O)CO[C@@H]1C[C@@H]2O [paclitaxel]	f
CC(C)(C(=O)NCC(F)(F)C(F)(F)F)C(=O)N[C@@H]1C(=O)Nc2ccccc2-c2ccccc21	t

---

# Test system: HCI-010 (organoid from a breast cancer xenograft)
# experiment.notes: CTG-3D luminescence at 96 h relative to day-0 seeding control (ratio to day 0); higher = more growth / less cytotoxicity; PDxO 3D drug screen (set 2), 96 h, CTG-3D normalised to day-0 seeding control.
# measurement.conditions: 1 µM; days in culture: 102
So basically: CTG-3D luminescence at 96 h at 0.5 or higher? That is rule met. Lower than 0.5? That is rule not met.

compound	assigned.label
CS(=O)(=O)CCNCc1ccc(-c2ccc3ncnc(Nc4ccc(OCc5cccc(F)c5)c(Cl)c4)c3c2)o1	rule met
CO[C@H]1C[C@@H]2CC[C@@H](C)[C@@](O)(O2)C(=O)C(=O)N2CCCC[C@H]2C(=O)O[C@H]([C@H](C)C[C@@H]2CC[C@@H](O)[C@H](OC)C2)CC(=O)[C@H](C)/C=C(\C)[C@@H](O)[C@@H](OC)C(=O)[C@H](C)C[C@H](C)/C=C/C=C/C=C/1C	rule met
CC(=O)O[C@@]12CO[C@@H]1C[C@H](O)[C@@]1(C)C(=O)[C@H](O)C3=C(C)[C@@H](OC(=O)[C@H](O)[C@@H](NC(=O)OC(C)(C)C)c4ccccc4)C[C@@](O)([C@@H](OC(=O)c4ccccc4)[C@H]21)C3(C)C	rule met
Cc1c(CN2CCN(C(=O)[C@H](C)O)CC2)sc2c(N3CCOCC3)nc(-c3cnc(N)nc3)nc12	rule not met
COc1cccc2c1C(=O)c1c(O)c3c(c(O)c1C2=O)C[C@@](O)(C(=O)CO)C[C@@H]3O[C@H]1C[C@H](N)[C@@H](O)[C@H](C)O1 [epirubicin]	rule not met

---

# Test system: HCI-025 (organoid from a breast cancer xenograft)
# experiment.notes: CTG-3D luminescence at 96 h relative to day-0 seeding control (ratio to day 0); higher = more growth / less cytotoxicity; PDxO 3D drug screen (set 2), 96 h, CTG-3D normalised to day-0 seeding control.
# measurement.conditions: 0.00025 µM; days in culture: 212
We begin with a simple list: items and their reported CTG-3D luminescence at 96 h.

chemical.string	CTG-3D luminescence at 96 h
CO[C@H]1C[C@@H]2CC[C@@H](C)[C@@](O)(O2)C(=O)C(=O)N2CCCC[C@H]2C(=O)O[C@H]([C@H](C)C[C@@H]2CC[C@@H](OCCO)[C@H](OC)C2)CC(=O)[C@H](C)/C=C(\C)[C@@H](O)[C@@H](OC)C(=O)[C@H](C)C[C@H](C)/C=C/C=C/C=C/1C	2.27
CS(=O)(=O)CCNCc1ccc(-c2ccc3ncnc(Nc4ccc(OCc5cccc(F)c5)c(Cl)c4)c3c2)o1	3.22
C[C@@H](Nc1cc(F)cc(F)c1)c1cc(C(=O)N(C)C)cc2c(=O)cc(N3CCOCC3)oc12	3.57
CCOc1ccn(-c2ccc(F)cc2)c(=O)c1C(=O)Nc1ccc(Oc2ccnc(N)c2Cl)c(F)c1	1.8

---

We begin with a simple list: items and their reported CTG-3D luminescence at 96 h.
# Test system: HCI-019 (organoid from a triple-negative breast cancer xenograft)
# experiment.notes: CTG-3D luminescence at 96 h relative to day-0 seeding control (ratio to day 0); higher = more growth / less cytotoxicity; PDxO 3D drug screen (set 2), 96 h, CTG-3D normalised to day-0 seeding control.
# measurement.conditions: 100 µM; days in culture: 173
measure.name: CTG-3D luminescence at 96 h

molecule	obs.value
CO[C@H]1C[C@@H]2CC[C@@H](C)[C@@](O)(O2)C(=O)C(=O)N2CCCC[C@H]2C(=O)O[C@H]([C@H](C)C[C@@H]2CC[C@@H](OCCO)[C@H](OC)C2)CC(=O)[C@H](C)/C=C(\C)[C@@H](O)[C@@H](OC)C(=O)[C@H](C)C[C@H](C)/C=C/C=C/C=C/1C [everolimus]	0.000122
CC(=O)c1c(C)c2cnc(Nc3ccc(N4CCNCC4)cn3)nc2n(C2CCCC2)c1=O [palbociclib]	1.9
CS(=O)(=O)CCNCc1ccc(-c2ccc3ncnc(Nc4ccc(OCc5cccc(F)c5)c(Cl)c4)c3c2)o1 [lapatinib]	0.078
Nc1cc(C(F)(F)F)c(-c2cc(N3CCOCC3)nc(N3CCOCC3)n2)cn1 [buparlisib]	0.353
O=C(c1cc(Cc2n[nH]c(=O)c3ccccc23)ccc1F)N1CCN(C(=O)C2CC2)CC1 [olaparib]	1.32
CCOc1ccn(-c2ccc(F)cc2)c(=O)c1C(=O)Nc1ccc(Oc2ccnc(N)c2Cl)c(F)c1 [ASLAN002]	1.12
